Molecular target: Or13a cells (OR from Drosophila melanogaster with Orco) (Drosophila melanogaster, UniProt Q9VXL0)
Construct: with Odorant receptor coreceptor
Sequence (Q9VXL0 1-418): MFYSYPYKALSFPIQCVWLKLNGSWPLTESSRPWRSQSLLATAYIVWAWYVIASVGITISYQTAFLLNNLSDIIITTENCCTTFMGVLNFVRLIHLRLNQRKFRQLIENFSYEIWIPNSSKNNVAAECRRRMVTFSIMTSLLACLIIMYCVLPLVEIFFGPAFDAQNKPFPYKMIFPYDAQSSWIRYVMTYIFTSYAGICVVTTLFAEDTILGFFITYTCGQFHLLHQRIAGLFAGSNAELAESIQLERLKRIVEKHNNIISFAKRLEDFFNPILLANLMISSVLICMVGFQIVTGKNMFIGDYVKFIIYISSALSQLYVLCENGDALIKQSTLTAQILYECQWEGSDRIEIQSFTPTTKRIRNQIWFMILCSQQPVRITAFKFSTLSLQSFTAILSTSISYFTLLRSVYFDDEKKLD
Sequence (Q9VNB5 1-486 partner): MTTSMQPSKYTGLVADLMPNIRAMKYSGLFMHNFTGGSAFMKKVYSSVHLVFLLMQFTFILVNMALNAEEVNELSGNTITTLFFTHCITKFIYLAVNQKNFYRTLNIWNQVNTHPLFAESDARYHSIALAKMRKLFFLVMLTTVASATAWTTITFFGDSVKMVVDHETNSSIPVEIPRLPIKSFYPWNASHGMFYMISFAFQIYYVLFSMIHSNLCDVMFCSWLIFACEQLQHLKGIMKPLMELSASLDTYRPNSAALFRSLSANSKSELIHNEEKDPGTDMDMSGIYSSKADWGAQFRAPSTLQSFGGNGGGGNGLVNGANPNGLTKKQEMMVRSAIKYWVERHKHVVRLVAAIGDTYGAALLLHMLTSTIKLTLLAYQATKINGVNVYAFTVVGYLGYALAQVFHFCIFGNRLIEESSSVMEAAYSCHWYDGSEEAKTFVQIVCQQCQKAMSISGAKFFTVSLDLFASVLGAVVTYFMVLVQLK
Experiment: GCaMP6s calcium imaging of Sf21 cells, dose-response
value_kind: EC50 (µM)
Field: numeric (µM). Do not append units.

Value lookup for EC50; key = C=CC(O)CCCCC (stereo not shown)
8.37

Reference source: paper PMC7650622
